The reader will find reported fold reduction in affinity against wild-type GLI1_(1-232) values listed item by item below.
Target: T1, GST-SUFU (fusion of GST to full-length human SUFU) (human, UniProt Q9UMX1-1 1-484)
T1 construct: human SUFU, full length (residues 1-484), BamHI-SUFU-SalI cassette in pGEX-LB; pGEX-LB carries a Gly-Gly-Gly-Gly-Gly-Ser-Gly stretch between GST and the fused protein; also called full-length GST-SUFU; source: Escherichia coli, purified (glutathione-Sepharose); not shown: GST, N-terminal, kept
T1 sequence (looked up): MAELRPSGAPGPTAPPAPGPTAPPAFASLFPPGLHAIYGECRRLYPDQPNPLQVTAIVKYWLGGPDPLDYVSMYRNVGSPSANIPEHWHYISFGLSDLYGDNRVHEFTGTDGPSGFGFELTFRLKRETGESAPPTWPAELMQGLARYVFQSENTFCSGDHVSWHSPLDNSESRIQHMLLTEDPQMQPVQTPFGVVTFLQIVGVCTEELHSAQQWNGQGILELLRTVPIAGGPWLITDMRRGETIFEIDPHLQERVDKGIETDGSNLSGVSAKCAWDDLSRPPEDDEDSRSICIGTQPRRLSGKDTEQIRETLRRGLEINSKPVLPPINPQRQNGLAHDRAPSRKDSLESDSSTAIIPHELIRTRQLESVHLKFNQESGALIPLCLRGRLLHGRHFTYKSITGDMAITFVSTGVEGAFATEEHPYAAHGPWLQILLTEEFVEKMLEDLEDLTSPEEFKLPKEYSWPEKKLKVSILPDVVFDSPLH
Assay: pull-down; purified GST-SUFU, 1.25-80 nM, captured on glutathione-Sepharose beads; ∼1 pmol 35S-GLI1 (1-232 or full length) in 200 μl; 15 min at 30°C, then 1 h at room temperature; Binding Buffer + 1 mg/ml BSA; bound GLI1 quantified by SDS-PAGE and Phosphorimager; Kd from binding isotherms
Conditions: one partner purified
# unit: fold | format: bare number

Sample answers from the record:
Binder | Scale unit | Result number
GLI1_(1-232) S102E S116E, 35S-radiolabeled (domain or fragment, human, UniProt P08151-1 1-232, looked up, [35S]-methionine label, also called S102E S116E double mutant; source: in vitro transcription/translation (T7), partially purified by ammonium sulfate precipitation) MFNSMTPPPISSYGEPCCLRPLPSQGAPSVGTEGLSGPPFCHQANLMSGPHSYGPARETNSCTEGPLFSSPRSAVKLTKKRALSISPLSDASLDLQTVIRTEPSSLVAFINSRCTEPGGSYGHLSIGTMSPSLGFPAQMNHQKGPSPSFGVQPCGPHDSARGGMIPHPQSRGPFPTCQLKSELDMLVGKCREEPLEGDMSSPNSTGIQDPLLGMLDGREDLEREEKREPESV | fold | 12
GLI1_(1-232) S102E S130E, 35S-radiolabeled (domain or fragment, human, UniProt P08151-1 1-232, looked up, [35S]-methionine label, also called S102E S130E double mutant; source: in vitro transcription/translation (T7), partially purified by ammonium sulfate precipitation) MFNSMTPPPISSYGEPCCLRPLPSQGAPSVGTEGLSGPPFCHQANLMSGPHSYGPARETNSCTEGPLFSSPRSAVKLTKKRALSISPLSDASLDLQTVIRTEPSSLVAFINSRCTSPGGSYGHLSIGTMEPSLGFPAQMNHQKGPSPSFGVQPCGPHDSARGGMIPHPQSRGPFPTCQLKSELDMLVGKCREEPLEGDMSSPNSTGIQDPLLGMLDGREDLEREEKREPESV | fold | 38

Reported fold reduction in affinity against wild-type GLI1_(1-232), binder GLI1_(1-232) S102E S116E S130E, 35S-radiolabeled (domain or fragment, human, UniProt P08151-1 1-232, looked up, [35S]-methionine label, also called S102E S116E S130E triple mutant; EEE; source: in vitro transcription/translation (T7), partially purified by ammonium sulfate precipitation) MFNSMTPPPISSYGEPCCLRPLPSQGAPSVGTEGLSGPPFCHQANLMSGPHSYGPARETNSCTEGPLFSSPRSAVKLTKKRALSISPLSDASLDLQTVIRTEPSSLVAFINSRCTEPGGSYGHLSIGTMEPSLGFPAQMNHQKGPSPSFGVQPCGPHDSARGGMIPHPQSRGPFPTCQLKSELDMLVGKCREEPLEGDMSSPNSTGIQDPLLGMLDGREDLEREEKREPESV : ____
65
